- method-notes: Pharmacokinetics in Sprague Dawley rats, single subcutaneous or intravenous dose (incl. 10, 30, 100 nmol/kg dose response)
- Format: in vivo
- details: male, Sprague Dawley, rat, plasma, sc, 10 nmol/kg, dose response, single subcutaneous dose 10 nmol/kg, mean, read-out: Tmax
*1 amine or outer side, *2 acyl side, *3 side chain or, on linkers, in order; H or OH if unused. Side-chain parts run from the residue outwards. [ ]: non-standard residue; d: D form. The star is where a group is joined. C20 diacid = O=C(O)CCCCCCCCCCCCCCCCCCC(=O)*; γGlu = O=C(O)[C@H](CCC(=O)[*:2])N[*:1]; εLys = N[C@@H](CCCCN[*:1])C(=O)[*:2]; pGlu = O=C1CC[C@@H](C(=O)O)N1; αMeL = CC(C)C[C@](C)(N)C(=O)O; AEEA = NCCOCCOCC(=O)O; Aib = CC(C)(N)C(=O)O
reported-metric: Tmax (h)

[pGlu]GSPSGIVTS[αMeL]DVPT[Aib][αMeL]LQKILEQERAEKARQQAK([γGlu-AEEA-εLys-C20 diacid])EAAEILAQV-NH2 [SEQ ID NO: 22] | 24
{C20 diacid-εLys-AEEA-γGlu}-GSPSIVTS[αMeL]DVPT[Aib][αMeL]LQKILEQERAEKARQQATEAAEILAQV-NH2 [SEQ ID NO: 25] | 18
Ac-GSPSIVTS[αMeL]DVPT[Aib][αMeL]LQKILEQERAEKARQQAK([γGlu-AEEA-εLys-C20 diacid])EAAEILAQV-NH2 [SEQ ID NO: 1] | 24
